- Tested system: KDM5B (PLU-1) (Homo sapiens, UniProt Q9UGL1)
- Sequence (Q9UGL1 1-809): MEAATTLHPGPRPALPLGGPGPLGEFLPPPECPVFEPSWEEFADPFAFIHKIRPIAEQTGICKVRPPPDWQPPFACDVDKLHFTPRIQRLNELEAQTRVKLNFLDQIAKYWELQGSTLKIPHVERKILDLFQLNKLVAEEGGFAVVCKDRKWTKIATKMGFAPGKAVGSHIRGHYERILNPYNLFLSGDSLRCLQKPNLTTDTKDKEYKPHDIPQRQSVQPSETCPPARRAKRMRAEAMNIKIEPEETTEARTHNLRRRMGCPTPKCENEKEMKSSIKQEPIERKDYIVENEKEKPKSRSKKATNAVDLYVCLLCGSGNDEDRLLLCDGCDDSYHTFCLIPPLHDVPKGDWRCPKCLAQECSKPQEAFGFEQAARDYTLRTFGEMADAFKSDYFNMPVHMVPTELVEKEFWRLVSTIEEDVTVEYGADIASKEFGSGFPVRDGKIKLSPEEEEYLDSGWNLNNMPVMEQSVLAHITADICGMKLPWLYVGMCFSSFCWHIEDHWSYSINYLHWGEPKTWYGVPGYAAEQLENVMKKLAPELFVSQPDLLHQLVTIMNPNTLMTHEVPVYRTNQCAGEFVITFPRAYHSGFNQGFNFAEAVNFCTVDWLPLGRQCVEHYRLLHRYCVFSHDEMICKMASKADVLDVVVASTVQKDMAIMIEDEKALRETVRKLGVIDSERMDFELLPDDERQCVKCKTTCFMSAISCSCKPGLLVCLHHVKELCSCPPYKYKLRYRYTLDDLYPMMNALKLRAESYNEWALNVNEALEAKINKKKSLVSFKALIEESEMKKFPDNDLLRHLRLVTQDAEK
- Assay comment: Histone lysine demethylase AlphaLISA assay, KDM5B
- Type: biochemical
- Condition details: read-out: KDM5B HDME Inhibition IC50
IC50 listing for selected molecules.

{"Molecule": "CCN(CC)CCCCNCc1cc(/C=N/C(CO)c2ccccc2)ccn1 (stereo not shown)", "IC50": "< 250 nM"}
{"Molecule": "CN(C)CCCNCc1cc(/C=N/CCN(C)C)ccn1", "IC50": "< 250 nM"}
{"Molecule": "O=Cc1ccnc(CNCC(=O)N2CCC[C@@H]2CN2CCCC2)c1", "IC50": "< 250 nM"}
{"Molecule": "CN(C)CCNCc1cc(CNC(C#N)C2CC2)ccn1 (stereo not shown)", "IC50": "> 2500 nM"}
{"Molecule": "CN(C)C(=O)CNCc1cc(/C=N/CCCc2ccccc2)ccn1", "IC50": "< 250 nM"}
{"Molecule": "CCN(CCN1CCC1)C(=O)CNCc1cc(CNC(=O)C(F)(F)F)ccn1", "IC50": "250 to 2500 nM"}
{"Molecule": "CCN(CC)CCCCNCc1cc(/C=N/CC(C)(C)CO)ccn1", "IC50": "250 to 2500 nM"}
{"Molecule": "CCN(CC)C(=O)CNCc1cc(C=O)ccn1", "IC50": "250 to 2500 nM"}

Given `CCN(CC)CCCCNCc1cc(CNC(=O)C(F)(F)F)ccn1` , report its IC50 on KDM5B (PLU-1) (Homo sapiens, UniProt Q9UGL1).
250 to 2500 nM

Given `CCN(CC)CCCCNCc1cc(/C=N/CC(F)(F)C(F)(F)F)ccn1` , report its IC50 on KDM5B (PLU-1) (Homo sapiens, UniProt Q9UGL1).
< 250 nM

====

- Tested system: KDM4C (JMJD2C) (Homo sapiens, UniProt Q9H3R0)
- Assay comment: Histone lysine demethylase AlphaLISA assay, KDM4C
- Assay type: biochemical
- Condition details: read-out: KDM4C HDME Inhibition IC50
Assay readout: IC50

Below, each entry is followed by its recorded IC50 result.
{"Compound": "CCN(CC)CCCCNC(=O)CNCc1cc(C=O)ccn1 [Compound 112]", "IC50": "250 to 2500 nM"}
{"Compound": "COC(=O)CNCc1cc(/C=N/C2CC2)ccn1 [Compound 59]", "IC50": "250 to 2500 nM"}
{"Compound": "CN(C)CC1CCC(CNCc2cc(C=O)ccn2)CC1 (stereo not drawn) [Compound 97]", "IC50": "> 2500 nM"}
{"Compound": "CCN(CC)C(=O)CNCc1cc(/C=N/CCC2CCCCC2)ccn1 [Compound 57]", "IC50": "250 to 2500 nM"}
{"Compound": "CN(C)C(=O)CNCc1cc(/C=N/CCCc2ccccc2)ccn1 [Compound 34]", "IC50": "250 to 2500 nM"}
{"Compound": "CCN(C[C@@H]1CCC[C@@H]1N(C)C)C(=O)CNCc1cc(/C=N/CCO)ccn1 [Compound 85]", "IC50": "< 250 nM"}

Now let's try a different one.
Read the entry CCN(CC)CCCCNCc1cc(/C=N/CCOC)ccn1 [Compound 60] and write its reported IC50.
> 2500 nM

====

- Tested system: UniProtKB Q9UGL1
- Assay comment: Histone lysine demethylase AlphaLISA assay, KDM5B
- Format: biochemical
- Condition details: read-out: KDM5B HDME Inhibition IC50
pIC50: −log10 of the molar value.
Assay readout: pIC50

Below, each entry is followed by its recorded pIC50 result.
{"Compound": "O=C(CNCc1cc(/C=N/C2CC2)ccn1)NC1CCN(Cc2ccccc2)C1 (stereo not shown)", "pIC50": "> 6.60"}
{"Compound": "CN(C)C/C=C/CNCc1cc(/C=N/C2CC2)ccn1", "pIC50": "> 6.60"}

Now let's try a different one.
Read the entry `CN(C)CCCCNCc1cc(CNC2CC2)ccn1` and write its reported pIC50.
< 5.60

====

pEC50 listing for selected molecules.
- Test system: MCF7 cells
- Assay comment: Cell proliferation assay MCF7
- Assay type: cell-based
- Condition details: MCF7 human breast cancer cells; 120 hours; ATPlite 1 Step
pEC50: −log10 of the molar value.

{"Molecule": "CCN(CC)CCCCNCc1cc(/C=N/C(C)CO)ccn1 (stereo not drawn)", "Tested system": "MCF7 cells", "pEC50": "> 6.60"}

Read the entry `CCN(CCN(C)C)C(=O)CNCc1cc(CNC(=O)C(F)(F)F)ccn1` and write its reported pEC50.
> 6.60

Read the entry CCN(CCN(C)C)C(=O)CNCc1cc(C2OCC3(CC3)CN2C(=O)C(F)(F)F)ccn1 (stereo not drawn) and write its reported pEC50.
> 6.60

Read the entry `CCN(CCN(C)C)C(=O)CNCc1cc(C=O)ccn1` and write its reported pEC50.
> 6.60

Read the entry CCN(CC)CCCCNCc1cc(C2NCC3(CCCC3)CO2)ccn1 (stereo not drawn) and write its reported pEC50.
> 6.60

Read the entry `NCc1ccnc(CNCCCCN2CCC2)c1` and write its reported pEC50.
5.60 to 6.60

Read the entry `CN(C)C(=O)CNCc1cc(/C=N/CCCc2ccccc2)ccn1` and write its reported pEC50.
< 5.60

Read the entry CCN(CC)CCCCNCc1cc(/C=N/CC(O)Cc2ccccc2)ccn1 (stereo not drawn) and write its reported pEC50.
> 6.60

Read the entry `CCN(CC)CCCCNCc1cc(/C=N/CC2(CO)CC2)ccn1` and write its reported pEC50.
> 6.60

====

- Test system: MCF7 cells
- Assay comment: Cell proliferation assay MCF7
- Type: cell-based
- Condition details: MCF7 human breast cancer cells; 120 hours; ATPlite 1 Step
pEC50: −log10 of the molar value.
Assay readout: pEC50

{"Compound": "CCN(CC)CCCCNCc1cc(/C=N\\CCC2CCCCC2)ccn1", "Assay readout": "pEC50", "Reported measurement": "> 6.60"}
{"Compound": "CN(C)CCCCCNCc1cc(CN)ccn1", "Assay readout": "pEC50", "Reported measurement": "> 6.60"}
{"Compound": "CCN(CC(C)(C)N(C)C)C(=O)CNCc1cc(C=O)ccn1", "Assay readout": "pEC50", "Reported measurement": "> 6.60"}
{"Compound": "O=Cc1ccnc(CNCC(=O)N2CCC[C@@H]2CN2CCCC2)c1", "Assay readout": "pEC50", "Reported measurement": "5.60 to 6.60"}

Read the entry `CCN(CC)CCCCNCc1cc(/C=N/CCCO)ccn1` and write its reported pEC50.
> 6.60

Read the entry `CN(C)CCCNCc1cc(/C=N/CCN(C)C)ccn1` and write its reported pEC50.
> 6.60

Read the entry `CCN(C[C@@H]1CCC[C@@H]1N(C)C)C(=O)CNCc1cc(/C=N/CCO)ccn1` and write its reported pEC50.
5.60 to 6.60

Read the entry `CCN(CCN(C)C)C(=O)CNCc1cc(CN)ccn1` and write its reported pEC50.
> 6.60

Read the entry CCN(CCN(C)C)C(=O)CNCc1cc(C2OCC(Cc3ccccc3)CN2C(=O)C(F)(F)F)ccn1 (stereo not shown) and write its reported pEC50.
> 6.60

Read the entry `CN1CCC(CNCc2cc(C=O)ccn2)CC1` and write its reported pEC50.
> 6.60

====

pIC50 listing for selected compounds.
- System: H3K4me3 mark
- Assay comment: Histone lysine demethylase immunofluorescence assay, non-transfected U2OS cells
- Assay type: cell-based
- Condition details: Homo sapiens, staining of the H3K4me3 mark, 20 hours incubation with compound
pIC50: −log10 of the molar value.

{"Smiles data": "CCN(CC)CCCCNCc1cc(/C=N/CCO)ccn1", "pIC50": "> 6.60"}

Read the entry `CCN(CC)C(=O)CNCc1cc(/C=N/CCC2CCCCC2)ccn1` and write its reported pIC50.
5.60 to 6.60

====

- Tested system: KDM4C (JMJD2C) (Homo sapiens)
- Sequence (Q9H3R0 1-349): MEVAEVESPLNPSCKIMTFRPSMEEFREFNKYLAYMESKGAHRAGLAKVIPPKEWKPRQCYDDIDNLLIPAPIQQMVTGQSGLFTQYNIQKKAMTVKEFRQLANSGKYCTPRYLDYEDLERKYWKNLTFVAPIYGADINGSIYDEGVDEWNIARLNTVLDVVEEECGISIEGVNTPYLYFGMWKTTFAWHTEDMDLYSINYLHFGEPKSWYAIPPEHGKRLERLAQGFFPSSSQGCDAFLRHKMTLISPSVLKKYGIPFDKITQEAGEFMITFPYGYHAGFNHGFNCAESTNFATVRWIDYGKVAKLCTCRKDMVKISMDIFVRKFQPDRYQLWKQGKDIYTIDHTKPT
- Assay comment: Histone lysine demethylase AlphaLISA assay, KDM4C
- Format: biochemical
- Condition details: read-out: KDM4C HDME Inhibition IC50
pIC50: −log10 of the molar value.
pIC50 listing for selected compounds.

Below, each entry is followed by its recorded pIC50 result.
{"Compound": "CCN(CCN(C)C)C(=O)CNCc1cc(C2NCC(C)(C)CO2)ccn1 (stereo not shown)", "Tested system": "KDM4C (JMJD2C) (Homo sapiens)", "Reported measurement": "5.60 to 6.60"}
{"Compound": "CCN(CCC#N)C(=O)CNCc1cc(/C=N/CCO)ccn1", "Tested system": "KDM4C (JMJD2C) (Homo sapiens)", "Reported measurement": "5.60 to 6.60"}
{"Compound": "CCN(CC)CCCCNCc1cc(C2NCCN2C)ccn1 (stereo not shown)", "Tested system": "KDM4C (JMJD2C) (Homo sapiens)", "Reported measurement": "5.60 to 6.60"}
{"Compound": "O=C(CNCc1cc(/C=N/C2CC2)ccn1)NC1CCN(Cc2ccccc2)C1 (stereo not shown)", "Tested system": "KDM4C (JMJD2C) (Homo sapiens)", "Reported measurement": "5.60 to 6.60"}
{"Compound": "CCN(CC)CCCCNCc1cc(CNC(=O)C(F)(F)F)ccn1", "Tested system": "KDM4C (JMJD2C) (Homo sapiens)", "Reported measurement": "< 5.60"}
{"Compound": "CCN(CC)CCCCNCc1cc(C2NCC3(CCCC3)CO2)ccn1 (stereo not shown)", "Tested system": "KDM4C (JMJD2C) (Homo sapiens)", "Reported measurement": "< 5.60"}
{"Compound": "CNC(C#N)c1ccnc(CNCCCN(C)C)c1 (stereo not shown)", "Tested system": "KDM4C (JMJD2C) (Homo sapiens)", "Reported measurement": "5.60 to 6.60"}
{"Compound": "CCN(CC)CCCCNCc1cc(/C=N/C(C)CO)ccn1 (stereo not shown)", "Tested system": "KDM4C (JMJD2C) (Homo sapiens)", "Reported measurement": "< 5.60"}
{"Compound": "CN(C)CCCNCc1cc(/C=N/CCN(C)C)ccn1", "Tested system": "KDM4C (JMJD2C) (Homo sapiens)", "Reported measurement": "5.60 to 6.60"}

Given `CN(CC(=O)N1CCCCC1)Cc1cc(C=O)ccn1` , report its pIC50 on KDM4C (JMJD2C) (Homo sapiens).
< 5.60
